# maps each entry to its EC50
biological target: T1, huNav157 chimera 14 (human); assay: binding FACS, HEK FlpIn cells
T1 construct: Chimera without β subunits; also called Nav157ch14
Respond numerically; units are nM and should not be typed.

# binder, unit_symbol, EC50
rows = [
    ("F010301648 (VHH, also called F0103387G05(L11V, A14P, N82bS, N83R, V89L, E93N, R105Q); E93N) VHH: EVQLVESGGGVVQPGGSLRLSCDASGRILRIGYMRWHRQGAGKQREFVARITDDSATDYADSVKGRFTISRDNAKNTVYLQMNSLRPEDTALYYCNALVTASVRGGSIHSGTYWGQGTLVTVSS", "nM", 210),
    ("F010301850 (VHH, also called F0103387G05(L11V, A14P, D23A, H37Y, G40A, A41P, D58G, N82bS, N83R, V89L, R105Q)) VHH: EVQLVESGGGVVQPGGSLRLSCAASGRILRIGYMRWYRQAPGKQREFVARITDDSATGYADSVKGRFTISRDNAKNTVYLQMNSLRPEDTALYYCEALVTASVRGGSIHSGTYWGQGTLVTVSS", "nM", 5.4),
    ("F010301647 (VHH, also called F0103387G05(L11V, A14P, F47L, N82bS, N83R, V89L, R105Q); F47L) VHH: EVQLVESGGGVVQPGGSLRLSCDASGRILRIGYMRWHRQGAGKQRELVARITDDSATDYADSVKGRFTISRDNAKNTVYLQMNSLRPEDTALYYCEALVTASVRGGSIHSGTYWGQGTLVTVSS", "nM", 12),
    ("F010301643 (VHH, also called F0103387G05(L11V, A14P, D23A, N82bS, N83R, V89L, R105Q)) VHH: EVQLVESGGGVVQPGGSLRLSCAASGRILRIGYMRWHRQGAGKQREFVARITDDSATDYADSVKGRFTISRDNAKNTVYLQMNSLRPEDTALYYCEALVTASVRGGSIHSGTYWGQGTLVTVSS", "nM", 3.7),
]

Can you look up the measured EC50 of F010302391 (VHH, also called F0103387G05(L11V, A14P, D23A, H37Y, G40A, A41P, D53G, D54G, D58G, N82bS, N83R, V89L, R105Q)-FLAG3-HIS6) VHH: EVQLVESGGGVVQPGGSLRLSCAASGRILRIGYMRWYRQAPGKQREFVARITGGSATGYADSVKGRFTISRDNAKNTVYLQMNSLRPEDTALYYCEALVTASVRGGSIHSGTYWGQGTLVTVSS for me?
2.7

Can you look up the measured EC50 of F0103387G05 (parental)-FLAG-HIS6 (VHH) VHH: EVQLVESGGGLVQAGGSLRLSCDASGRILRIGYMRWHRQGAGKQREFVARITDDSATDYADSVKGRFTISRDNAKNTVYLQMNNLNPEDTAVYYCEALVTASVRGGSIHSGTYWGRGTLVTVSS for me?
2.8

Can you look up the measured EC50 of F010301649 (VHH, also called F0103387G05(L11V, A14P, N82bS, N83R, V89L, R105Q)) VHH: EVQLVESGGGVVQPGGSLRLSCDASGRILRIGYMRWHRQGAGKQREFVARITDDSATDYADSVKGRFTISRDNAKNTVYLQMNSLRPEDTALYYCEALVTASVRGGSIHSGTYWGQGTLVTVSS for me?
3.4

Can you look up the measured EC50 of F010301644 (VHH, also called F0103387G05(L11V, A14P, H37Y, N82bS, N83R, V89L, R105Q)) VHH: EVQLVESGGGVVQPGGSLRLSCDASGRILRIGYMRWYRQGAGKQREFVARITDDSATDYADSVKGRFTISRDNAKNTVYLQMNSLRPEDTALYYCEALVTASVRGGSIHSGTYWGQGTLVTVSS for me?
4.4

Can you look up the measured EC50 of F010301645 (VHH, also called F0103387G05(L11V, A14P, G40A, N82bS, N83R, V89L, R105Q)) VHH: EVQLVESGGGVVQPGGSLRLSCDASGRILRIGYMRWHRQAAGKQREFVARITDDSATDYADSVKGRFTISRDNAKNTVYLQMNSLRPEDTALYYCEALVTASVRGGSIHSGTYWGQGTLVTVSS for me?
3.9

Can you look up the measured EC50 of F010301646 (VHH, also called F0103387G05(L11V, A14P, A41P, N82bS, N83R, V89L, R105Q)) VHH: EVQLVESGGGVVQPGGSLRLSCDASGRILRIGYMRWHRQGPGKQREFVARITDDSATDYADSVKGRFTISRDNAKNTVYLQMNSLRPEDTALYYCEALVTASVRGGSIHSGTYWGQGTLVTVSS for me?
3.1
